# experiment summary: Solubility of compound in water
# Type: physicochemical
# assay conditions: water; read-out: solubility
# Lookup of reported solubility keyed by entry

Some solved entries appear below for comparison.
cpd smiles: CC(C)(C)OC(=O)NCc1ccccc1NC(=O)c1cc2cc([N+](=O)[O-])ccc2s1
solubility: < 5 µg/mL
//
cpd smiles: NC(=O)c1cccc(NC(=O)c2cnc3ccccc3c2)c1
solubility: < 5 µg/mL
//
cpd smiles: NC(=O)c1ccc(NC(=O)c2ccc(-c3ccccc3)cc2)cc1
solubility: < 5 µg/mL
//
cpd smiles: COC(=O)c1ccccc1NC(=O)c1ccc2ccccc2n1
solubility: < 5 µg/mL

Problem: Give its solubility value. Item: COC(=O)c1ccc(NC(=O)c2cnc3ccccc3c2)cc1
Solution: < 5 µg/mL

Problem: Consider the compound COC(=O)c1cccc(NC(=O)c2cccc3ccccc23)c1 and give its measured solubility.
Solution: < 5 µg/mL

Problem: Tell me the measured solubility of NC(=O)c1cccc(NC(=O)c2cc3ccccc3s2)c1 , please.
Solution: < 5 µg/mL

Problem: I am curious: what solubility value has been reported for NC(=O)c1ccc(NC(=O)c2cccc3ccccc23)cc1 ?
Solution: < 5 µg/mL

###

# experiment summary: Solubility of compound in water
# Format: physicochemical
# assay conditions: water; read-out: solubility
recorded metric: solubility (µg/mL)

cpd smiles: COC(=O)c1cccc(NC(=O)c2ccc3ccccc3n2)c1
solubility (µg/mL): 25

cpd smiles: COC(=O)c1ccc(NC(=O)c2cc3ccccc3s2)cc1
solubility (µg/mL): 20

cpd smiles: NC(=O)c1cccc(NC(=O)c2cc3cc([N+](=O)[O-])ccc3o2)c1
solubility (µg/mL): 20

cpd smiles: COC(=O)c1cccc(NC(=O)c2cc3cc([N+](=O)[O-])ccc3o2)c1
solubility (µg/mL): 25

cpd smiles: NC(=O)c1ccccc1NC(=O)c1cc2cc([N+](=O)[O-])ccc2s1
solubility (µg/mL): 10

A = NC(=O)c1ccccc1NC(=O)c1ccc2ccccc2c1
B = NCc1ccccc1NC(=O)c1cnc2ccccc2c1
C = O=C(Nc1ccccc1)c1cc2cc([N+](=O)[O-])ccc2s1
Problem: List from greatest to least solubility. Order the labels as requested and list them.
Solution: A, C, B
(A: 25 µg/mL, C: 10 µg/mL, B: 5 µg/mL)

I = O=C(Nc1ccccc1)c1cc2cc([N+](=O)[O-])ccc2o1
II = NC(=O)c1cccc(NC(=O)c2ccc3ccccc3n2)c1
III = CC(C)(C)OC(=O)NCc1ccccc1NC(=O)c1cccc2ccccc12
Problem: Order the items by recorded solubility; the first position goes to the largest value. Please reply with the labels ordered as requested. Many thanks.
Solution: I, II, III

###

# experiment summary: Solubility of compound in water
# Assay type: physicochemical
# assay conditions: water; read-out: solubility
recorded metric: solubility (µg/mL)

// solved cases for solubility follow
cpd smiles: COC(=O)c1ccc(NC(=O)c2ccc3ccccc3c2)cc1
solubility, µg/mL: 25
//
cpd smiles: NCc1ccccc1NC(=O)c1cccc2ccccc12
solubility, µg/mL: 25
//
cpd smiles: NC(=O)c1cccc(NC(=O)c2cccc3ccccc23)c1
solubility, µg/mL: 10

I = NC(=O)c1ccc(NC(=O)c2cc3ccccc3s2)cc1
II = COC(=O)c1cccc(NC(=O)c2ccc3ccccc3c2)c1
III = COc1ccc2[nH]c(C(=O)Nc3ccccc3C(N)=O)cc2c1
Problem: Returns the items ordered by solubility, from maximum to minimum. Put the labels in the requested order and write them down.
Solution: I, III, II

1 = NCc1ccccc1NC(=O)c1ccc2ccccc2n1
2 = NC(=O)c1ccccc1NC(=O)c1cc2cc([N+](=O)[O-])ccc2o1
Problem: Name the one with the greater solubility value, either 1 or 2 as given. When you have decided, please share the label of that item.
Solution: 1
